B1: Retinoic acid receptor beta, residues 85 to 161; numbered along this chain, P10826 (parent)
chain: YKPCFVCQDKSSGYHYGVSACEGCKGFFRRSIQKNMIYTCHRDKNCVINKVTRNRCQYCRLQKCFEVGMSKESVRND

# Variants of: B1
# test.protocol: abundance fitness (aPCA) (normalised: wild type 0, dead -1); higher = more abundant; growth selection in yeast, the domain comes from the species named
# stated.conditions: Homo sapiens
# abundance fitness values compiled below
measured.parameter: abundance fitness

YKPCFVCQDKSSGYHKGVSACEGCKGFFRRSIQKNMIYTCHRDKNCVINKVTRNRCQYCRLQKCFEVGMSKESVRND [Y16K]
-0.295
YKPCFVCQDKSSGYHYGVSACEGCKGFFRRSIQKNMIYTCHRDKNCVINKVQRNRCQYCRLQKCFEVGMSKESVRND [T52Q]
0.027
YKPCFVCQDKSSGYHYGVSACEGCKGFFRRSIQKNMIYTCHRDKNCVTNKVTRNRCQYCRLQKCFEVGMSKESVRND [I48T]
-0.161
YKPCFVCQDKSSGYHYGVSACEGCKGFFRRSIQKNMIYKCHRDKNCVINKVTRNRCQYCRLQKCFEVGMSKESVRND [T39K]
0.056
YKPCFVCQDKSSGYHYGVSACEGCKGFFRRSIGKNMIYTCHRDKNCVINKVTRNRCQYCRLQKCFEVGMSKESVRND [Q33G]
-0.044
YKDCFVCQDKSSGYHYGVSACEGCKGFFRRSIQKNMIYTCHRDKNCVINKVTRNRCQYCRLQKCFEVGMSKESVRND [P3D]
0.225
YKPCFVCQDKSSGYHYSVSACEGCKGFFRRSIQKNMIYTCHRDKNCVINKVTRNRCQYCRLQKCFEVGMSKESVRND [G17S]
-0.219
YKPCFVCQDKSSGYHYGVSACEGCKGFFRRSIQKNMIYTCHRDKNCVINKVTRNRCQHCRLQKCFEVGMSKESVRND [Y58H]
-0.111
YKPCFVCQDKSSGYHYGVSACEGCKGFFRRSNQKNMIYTCHRDKNCVINKVTRNRCQYCRLQKCFEVGMSKESVRND [I32N]
-0.059
YKPCFVCQDKSSGYHYGVSACEGCKGFFRRSIQKNMIYTCHRDMNCVINKVTRNRCQYCRLQKCFEVGMSKESVRND [K44M]
0.032
YKPCFVCQDKSSGYHYGVSACEGCKGFFRRSAQKNMIYTCHRDKNCVINKVTRNRCQYCRLQKCFEVGMSKESVRND [I32A]
-0.156
YKPCFVCQDKSSGYHYGVSACEGCKGFFRRSIQKNMIYTCHRNKNCVINKVTRNRCQYCRLQKCFEVGMSKESVRND [D43N]
-0.072
YKPCFVCQDKSSGYHYGVSACEGCKGFFRRMIQKNMIYTCHRDKNCVINKVTRNRCQYCRLQKCFEVGMSKESVRND [S31M]
-0.486
YKPCFVCQTKSSGYHYGVSACEGCKGFFRRSIQKNMIYTCHRDKNCVINKVTRNRCQYCRLQKCFEVGMSKESVRND [D9T]
-1.01
YKPCFVCQDKSSGYHYGVSACEGCTGFFRRSIQKNMIYTCHRDKNCVINKVTRNRCQYCRLQKCFEVGMSKESVRND [K25T]
0.048
YKPCFVCQDKSSGYHYGVSACEGCKGFFRRSIQKNMIYTCHRDKNCVIHKVTRNRCQYCRLQKCFEVGMSKESVRND [N49H]
-0.372
YKPCFVCQDKSSGYHYGVSACEGCKGFFRRGIQKNMIYTCHRDKNCVINKVTRNRCQYCRLQKCFEVGMSKESVRND [S31G]
-0.774
YKPCFVCQDKSSGYHYGVSACEGCKGFFRRSIQKNMIYTCHRDKDCVINKVTRNRCQYCRLQKCFEVGMSKESVRND [N45D]
-0.151
YKPCFVCQDKSSGYHYGYSACEGCKGFFRRSIQKNMIYTCHRDKNCVINKVTRNRCQYCRLQKCFEVGMSKESVRND [V18Y]
-0.29
YKPCFVCQDKSSGYHYGVSACEGCKGFFRRSIQKNMIYTCRRDKNCVINKVTRNRCQYCRLQKCFEVGMSKESVRND [H41R]
-0.101
YKPCNVCQDKSSGYHYGVSACEGCKGFFRRSIQKNMIYTCHRDKNCVINKVTRNRCQYCRLQKCFEVGMSKESVRND [F5N]
-0.39
YKPCFVCQDKSSGYHYGVSPCEGCKGFFRRSIQKNMIYTCHRDKNCVINKVTRNRCQYCRLQKCFEVGMSKESVRND [A20P]
-0.724
YKPCFVCQDKSSGYHYGVSACEGCKGFFRRSIQKNMIYTCHRDKNCVINKVTRNRLQYCRLQKCFEVGMSKESVRND [C56L]
-0.907
YKPCFVCQDKSSGYWYGVSACEGCKGFFRRSIQKNMIYTCHRDKNCVINKVTRNRCQYCRLQKCFEVGMSKESVRND [H15W]
-0.203
YKPCFVCQDKSSGYHYGVSACEGCKGFFRRSIQKNMIYTCHRDKNCVINKVTRDRCQYCRLQKCFEVGMSKESVRND [N54D]
0.345
YKPCFVCQDKSSGYHDGVSACEGCKGFFRRSIQKNMIYTCHRDKNCVINKVTRNRCQYCRLQKCFEVGMSKESVRND [Y16D]
0.128
YKPCFVCQDKSSGYHYGVSAQEGCKGFFRRSIQKNMIYTCHRDKNCVINKVTRNRCQYCRLQKCFEVGMSKESVRND [C21Q]
-0.93
YKPCFVCQDKSSGYHYGVSACEGCKGFFRRSWQKNMIYTCHRDKNCVINKVTRNRCQYCRLQKCFEVGMSKESVRND [I32W]
-0.432
YKPCFVCVDKSSGYHYGVSACEGCKGFFRRSIQKNMIYTCHRDKNCVINKVTRNRCQYCRLQKCFEVGMSKESVRND [Q8V]
-0.598
YKPCFVCQDYSSGYHYGVSACEGCKGFFRRSIQKNMIYTCHRDKNCVINKVTRNRCQYCRLQKCFEVGMSKESVRND [K10Y]
0.115
YKPCFVCQDKSSGYHYGVSACEGCKGFFRRSIQKNMIYTDHRDKNCVINKVTRNRCQYCRLQKCFEVGMSKESVRND [C40D]
-0.825
YKPCFVCQDKSSGYHYGVSACEGCKGFFRRSIQKNMIYTCHRDTNCVINKVTRNRCQYCRLQKCFEVGMSKESVRND [K44T]
-0.043
YKPCFVCQDKSSGYHYGVSACEGCKGFFRRSIQKNMIYTCHRDKNCVINKVTRNRCQYCQLQKCFEVGMSKESVRND [R60Q]
-0.003
YKPCFVCQDKSSGYHYGVSACEGCKGFFRRSIQKNMDYTCHRDKNCVINKVTRNRCQYCRLQKCFEVGMSKESVRND [I37D]
0.048
YKPCFVCQDKSSGYHYGVSACEGCKGFFRRSIQKNWIYTCHRDKNCVINKVTRNRCQYCRLQKCFEVGMSKESVRND [M36W]
-0.127
VKPCFVCQDKSSGYHYGVSACEGCKGFFRRSIQKNMIYTCHRDKNCVINKVTRNRCQYCRLQKCFEVGMSKESVRND [Y1V]
0.158
YKPCFVCQDKSSGYHYGVSACEGCKGFFRRSIQKNMIYQCHRDKNCVINKVTRNRCQYCRLQKCFEVGMSKESVRND [T39Q]
0.076
YKPCFVCQDKSSGYHYGVSACEGCKGFFRRSIQKNMIYTCHRDKNCVINKVTRNRCWYCRLQKCFEVGMSKESVRND [Q57W]
0.104
YKPCFVCQDKSSGYHYGVSACEDCKGFFRRSIQKNMIYTCHRDKNCVINKVTRNRCQYCRLQKCFEVGMSKESVRND [G23D]
0.228
